biological target: GSNOR (Homo sapiens (Human), UniProt P11766); experiment: GSNOR assay (inhibition of GSNOR activity in vitro, change in 340 nm absorbance with GSNO/NADH); conditions: GSNOR IC50, Table 1, racemates and separated enantiomers
Sequence (P11766 whole entry): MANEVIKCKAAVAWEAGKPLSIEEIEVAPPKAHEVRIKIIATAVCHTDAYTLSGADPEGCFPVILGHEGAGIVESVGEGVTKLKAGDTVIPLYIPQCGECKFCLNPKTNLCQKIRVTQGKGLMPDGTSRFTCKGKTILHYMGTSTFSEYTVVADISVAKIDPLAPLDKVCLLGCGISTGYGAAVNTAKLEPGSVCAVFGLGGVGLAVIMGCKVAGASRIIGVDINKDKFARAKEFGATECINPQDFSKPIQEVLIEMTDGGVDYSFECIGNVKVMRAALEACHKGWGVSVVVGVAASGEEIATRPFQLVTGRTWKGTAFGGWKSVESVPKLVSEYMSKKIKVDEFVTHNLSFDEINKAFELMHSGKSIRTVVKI
READOUT LABEL: IC50 (nM)

a = Cn1cc(C2=C(c3ccsc3)[C@H](c3ccc(C(=O)O)c(O)c3)NC(=O)N2)cn1
b = CCOc1cc([C@@H]2NC(=O)NC(c3cnn(C)c3)=C2c2ccsc2)cc(C(=O)O)c1O
Asked: Which gives the smaller IC50 number: a or b ? Mark your selection by writing its label.
Given back: b

* * *

molecular target: GSNOR (Homo sapiens (Human), UniProt P11766); assay: GSNOR assay (inhibition of GSNOR activity in vitro, change in 340 nm absorbance with GSNO/NADH); settings: IC50, upper bound (about <)
READOUT LABEL: IC50

Answered cases to consult:
COMPOUND | SYSTEM UNDER TEST | READOUT LABEL | REPORTED VALUE
O=C1NC(c2ccccc2)=C(c2ccccc2)C(c2cccc(C(=O)O)c2)N1 (stereo not shown) | GSNOR (Homo sapiens (Human), UniProt P11766) | IC50 | < 100000 nM
CCOc1cc(C2NC(=O)NC(c3ccccc3)=C2c2ccccc2)cc(O)c1C(=O)O (stereo not shown) | GSNOR (Homo sapiens (Human), UniProt P11766) | IC50 | < 100 nM
O=C1NC(c2ccccc2)=C(c2ccccc2)C(c2ccc(O)c([N+](=O)[O-])c2)N1 (stereo not shown) | GSNOR (Homo sapiens (Human), UniProt P11766) | IC50 | < 1000 nM

Now consider a different compound.
For record CCOc1cc(C2NC(=O)NC(c3ccc(C(F)(F)F)cc3)=C2c2ccccc2)cc([N+](=O)[O-])c1O (stereo not shown) the listed IC50 is < 100 nM
